Origin of measurements: ChEMBL document CHEMBL4715754

Molecular target: Pancreatic lipase-related protein 2 (Cavia porcellus)
Sequence (whole entry): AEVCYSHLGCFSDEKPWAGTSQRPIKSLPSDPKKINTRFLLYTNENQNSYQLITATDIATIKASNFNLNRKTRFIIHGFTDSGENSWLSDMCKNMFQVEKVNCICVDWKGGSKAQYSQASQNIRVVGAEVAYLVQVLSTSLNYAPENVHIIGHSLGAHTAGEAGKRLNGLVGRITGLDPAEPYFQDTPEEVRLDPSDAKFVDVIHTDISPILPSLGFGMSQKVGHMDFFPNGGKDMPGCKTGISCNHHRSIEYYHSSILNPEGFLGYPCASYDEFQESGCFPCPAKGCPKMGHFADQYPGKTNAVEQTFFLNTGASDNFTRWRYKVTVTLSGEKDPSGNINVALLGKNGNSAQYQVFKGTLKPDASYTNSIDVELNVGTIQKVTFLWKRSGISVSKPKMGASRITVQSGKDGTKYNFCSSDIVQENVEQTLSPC
Assay: Inhibition of recombinant guinea pig PL-RP2 expressed in Aspergillus oryzae preincubated for 30 mins at 25 degreeC
PARAMETER MEASURED: XI50 (molar excess)
One number for each entry, in molar excess.

Here's what some known entries look like.
COCCOc1nn(-c2cccc(Oc3ccccc3)c2)c(=O)o1    1.7
CCCCCCCCCCOc1nn(-c2cccc(Oc3ccccc3)c2)c(=O)o1    2.72
CCCCCCCCCCCCOc1nn(-c2cccc(Oc3ccccc3)c2)c(=O)o1    1.17
O=c1oc(OCCOCc2ccccc2)nn1-c1cccc(Oc2ccccc2)c1    0.64
CCCCCCOc1nn(-c2cccc(Oc3ccccc3)c2)c(=O)o1    1.09

Would you be so kind as to report XI50 for each listed record?
1. CC(C)COc1nn(-c2cccc(Oc3ccccc3)c2)c(=O)o1
2. CCCCC(CC)COc1nn(-c2cccc(Oc3ccccc3)c2)c(=O)o1 (stereo not given)
3. CCCCCCCCOc1nn(-c2cccc(Oc3ccccc3)c2)c(=O)o1

### Response
1. 0.52
2. 2.8
3. 1.47

###

target: Pancreatic triacylglycerol lipase (Homo sapiens); test: Inhibition of human pancreatic lipase at 400:1 molar excess compound concentration preincubated for 30 mins at 25 degreeC relative to control
Everything with inhibition lower than 20% is n; everything else, including exactly 20%, is y.

Solved entries (count: 5):
COc1nn(-c2ccc(Oc3ccccc3)cc2)c(=O)o1    n
CCCCCCCCCCC[C@@H](C[C@@H]1OC(=O)[C@H]1CCCCCC)OC(=O)[C@@H](CC(C)C)NC=O    y
CCOc1nn(-c2cccc(Oc3ccccc3)c2)c(=O)o1    n
CCCCC(CC)COc1nn(-c2cccc(Oc3ccccc3)c2)c(=O)o1 (centres undefined)    y
CCCCCCOc1nn(-c2cccc(Oc3ccccc3)c2)c(=O)o1    n

### Prompt Confirm if inhibition reported for the molecule O=c1oc(OCCOCc2ccccc2)nn1-c1cccc(Oc2ccccc2)c1 is 20% or above.
### Response n

### Prompt Confirm if inhibition reported for the molecule COc1nn(-c2cccc(Oc3ccccc3)c2)c(=O)o1 is 20% or above.
### Response y

### Prompt Confirm if inhibition reported for the molecule COc1nn(-c2ccccc2)c(=O)o1 is 20% or above.
### Response y

### Prompt Confirm if inhibition reported for the molecule CCCCCCCCCCCCOc1nn(-c2cccc(Oc3ccccc3)c2)c(=O)o1 is 20% or above.
### Response y

### Prompt Confirm if inhibition reported for the molecule CC(C)COc1nn(-c2cccc(Oc3ccccc3)c2)c(=O)o1 is 20% or above.
### Response y

### Prompt Confirm if inhibition reported for the molecule CCCCOc1nn(-c2cccc(Oc3ccccc3)c2)c(=O)o1 is 20% or above.
### Response n

### Prompt Confirm if inhibition reported for the molecule CCCCCCCCOc1nn(-c2cccc(Oc3ccccc3)c2)c(=O)o1 is 20% or above.
### Response y

###

target: Pancreatic lipase-related protein 2 (Cavia porcellus) (UniProt P81139); experiment: Inhibition of recombinant guinea pig PL-RP2 expressed in Aspergillus oryzae at 4:1 molar excess compound concentration preincubated for 30 mins at 25 degreeC relative to control
Would you kindly list inhibition for each of these molecules?
Give bare numbers, in %.

Would you be so kind as to report inhibition for each listed record?
1. CCCCCCCCOc1nn(-c2cccc(Oc3ccccc3)c2)c(=O)o1
2. CCCCCCOc1nn(-c2cccc(Oc3ccccc3)c2)c(=O)o1
3. CCCCCCCCCCOc1nn(-c2cccc(Oc3ccccc3)c2)c(=O)o1
4. COCCOc1nn(-c2cccc(Oc3ccccc3)c2)c(=O)o1
5. O=c1oc(OCCOCc2ccccc2)nn1-c1cccc(Oc2ccccc2)c1
6. CCOc1nn(-c2cccc(Oc3ccccc3)c2)c(=O)o1

### Response
[62.3, 90.7, 56.4, 60.3, 60.6, 27.4]

###

molecular target: UniProtKB P80035; test: Inhibition of recombinant dog gastric lipase preincubated for 30 mins at 25 degreeC
PARAMETER MEASURED: XI50 (molar excess)
One number for each entry, in molar excess.

Here's what some known entries look like.
O=c1oc(OCCOCc2ccccc2)nn1-c1cccc(Oc2ccccc2)c1    0.5
CCCCCCOc1nn(-c2cccc(Oc3ccccc3)c2)c(=O)o1    4.92
CCCCCCCCOc1nn(-c2cccc(Oc3ccccc3)c2)c(=O)o1    3.99
CCCCCCCCCCCCOc1nn(-c2cccc(Oc3ccccc3)c2)c(=O)o1    4.57
CC(C)COc1nn(-c2cccc(Oc3ccccc3)c2)c(=O)o1    5.51
CCCCOc1nn(-c2cccc(Oc3ccccc3)c2)c(=O)o1    5.33
CCOc1nn(-c2cccc(Oc3ccccc3)c2)c(=O)o1    6.08

Then there is this molecule:
### Prompt Supply recorded XI50 for COCCOc1nn(-c2cccc(Oc3ccccc3)c2)c(=O)o1 here.
### Response 11.8

###

biological target: Gastric triacylglycerol lipase (Canis lupus familiaris) (UniProt P80035); experiment: Inhibition of recombinant dog gastric lipase at 20:1 molar excess compound concentration preincubated for 30 mins at 25 degreeC relative to control
Sequence (P80035 whole entry): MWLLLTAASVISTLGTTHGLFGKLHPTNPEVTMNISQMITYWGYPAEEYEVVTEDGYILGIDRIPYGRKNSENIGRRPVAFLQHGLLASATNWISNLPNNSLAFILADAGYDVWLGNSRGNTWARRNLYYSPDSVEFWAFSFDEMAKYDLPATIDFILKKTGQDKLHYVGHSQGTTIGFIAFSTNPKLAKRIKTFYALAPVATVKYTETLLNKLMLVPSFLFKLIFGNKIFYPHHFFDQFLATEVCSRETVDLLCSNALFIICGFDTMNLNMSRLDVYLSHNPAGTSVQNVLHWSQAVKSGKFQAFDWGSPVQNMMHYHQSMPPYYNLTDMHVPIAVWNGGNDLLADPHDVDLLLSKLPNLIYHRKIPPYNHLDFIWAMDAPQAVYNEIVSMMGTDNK
Would you kindly list inhibition for each of these molecules?

Here's what some known entries look like.
CCOc1nn(-c2cccc(Oc3ccccc3)c2)c(=O)o1    83%
COCCOc1nn(-c2cccc(Oc3ccccc3)c2)c(=O)o1    69.1%
CCCCC(CC)COc1nn(-c2cccc(Oc3ccccc3)c2)c(=O)o1 (stereo not given)    27.6%

Would you be so kind as to report inhibition for each listed record?
1. CCCCCCCCOc1nn(-c2cccc(Oc3ccccc3)c2)c(=O)o1
2. CCCCCCOc1nn(-c2cccc(Oc3ccccc3)c2)c(=O)o1
3. CCCCCCCCCCOc1nn(-c2cccc(Oc3ccccc3)c2)c(=O)o1

### Response
1. 70.5%
2. 65.9%
3. 37.7%

###

Would you kindly list inhibition for each of these compounds?
target: UniProt P00591; test: Inhibition of porcine pancreatic lipase at 400:1 molar excess compound concentration preincubated for 30 mins at 25 degreeC relative to control
Sequence (P00591 whole entry): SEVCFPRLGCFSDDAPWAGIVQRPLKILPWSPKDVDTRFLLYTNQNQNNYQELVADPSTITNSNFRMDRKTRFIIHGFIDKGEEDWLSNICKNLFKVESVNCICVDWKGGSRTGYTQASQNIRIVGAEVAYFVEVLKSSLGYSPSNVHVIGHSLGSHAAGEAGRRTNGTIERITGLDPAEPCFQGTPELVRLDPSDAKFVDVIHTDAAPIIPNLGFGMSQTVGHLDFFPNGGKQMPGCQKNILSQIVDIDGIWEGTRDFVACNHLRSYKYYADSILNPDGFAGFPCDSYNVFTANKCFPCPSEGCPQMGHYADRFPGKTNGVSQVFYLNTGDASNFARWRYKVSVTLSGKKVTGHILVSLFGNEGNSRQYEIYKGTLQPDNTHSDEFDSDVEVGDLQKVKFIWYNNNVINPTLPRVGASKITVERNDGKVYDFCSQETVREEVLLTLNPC
Numbers only, in %.

CCCCCCCCOc1nn(-c2cccc(Oc3ccccc3)c2)c(=O)o1    19.9
O=c1oc(OCCOCc2ccccc2)nn1-c1cccc(Oc2ccccc2)c1    13.2
CCCCCCCCCCCCOc1nn(-c2cccc(Oc3ccccc3)c2)c(=O)o1    27.9
COCCOc1nn(-c2cccc(Oc3ccccc3)c2)c(=O)o1    15.5
CCCCOc1nn(-c2cccc(Oc3ccccc3)c2)c(=O)o1    19.7

Would you be so kind as to report inhibition for each listed record?
1. CCCCCCCCCCC[C@@H](C[C@@H]1OC(=O)[C@H]1CCCCCC)OC(=O)[C@@H](CC(C)C)NC=O
2. CCCCCCOc1nn(-c2cccc(Oc3ccccc3)c2)c(=O)o1
3. CCCCC(CC)COc1nn(-c2cccc(Oc3ccccc3)c2)c(=O)o1 (configuration not stated)
4. COc1nn(-c2ccccc2)c(=O)o1
5. CCCCCCCCCCOc1nn(-c2cccc(Oc3ccccc3)c2)c(=O)o1
6. CCOc1nn(-c2cccc(Oc3ccccc3)c2)c(=O)o1
7. CC(C)COc1nn(-c2cccc(Oc3ccccc3)c2)c(=O)o1

### Response
1. 93.1
2. 27.2
3. 18.9
4. 90.6
5. 32.5
6. 19
7. 20.6

###

Molecular target: UniProtKB P81139
Sequence (whole entry): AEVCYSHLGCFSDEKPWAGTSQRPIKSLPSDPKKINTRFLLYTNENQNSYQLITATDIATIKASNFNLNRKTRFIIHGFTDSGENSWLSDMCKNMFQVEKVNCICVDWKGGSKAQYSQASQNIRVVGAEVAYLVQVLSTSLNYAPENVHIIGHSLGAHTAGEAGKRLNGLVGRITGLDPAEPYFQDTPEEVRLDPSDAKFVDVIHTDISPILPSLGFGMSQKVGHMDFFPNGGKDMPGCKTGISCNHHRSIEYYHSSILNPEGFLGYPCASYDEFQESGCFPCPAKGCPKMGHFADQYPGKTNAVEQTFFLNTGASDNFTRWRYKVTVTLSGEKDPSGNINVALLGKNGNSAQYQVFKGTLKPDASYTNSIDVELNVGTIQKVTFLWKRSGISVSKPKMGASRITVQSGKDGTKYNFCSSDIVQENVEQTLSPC
Assay: Inhibition of recombinant guinea pig PL-RP2 expressed in Aspergillus oryzae at 4:1 molar excess compound concentration preincubated for 30 mins at 25 degreeC relative to control
Would you kindly list inhibition for each of these molecules?
Give bare numbers, in %.

Would you be so kind as to report inhibition for each listed record?
1. CCCCCCCCCCCCOc1nn(-c2cccc(Oc3ccccc3)c2)c(=O)o1
2. CC(C)COc1nn(-c2cccc(Oc3ccccc3)c2)c(=O)o1
3. CCCCC(CC)COc1nn(-c2cccc(Oc3ccccc3)c2)c(=O)o1 (centres undefined)

### Response
[53.1, 73.6, 47.9]

### Prompt Supply recorded inhibition for CCCCOc1nn(-c2cccc(Oc3ccccc3)c2)c(=O)o1 here.
### Response 42.4
